Taken from paper PMC10691883.

Experiment: Hemolytic activity against human erythrocytes
Format: cell-based
Details: freshly isolated human red blood cells (erythrocytes), PBS, 37°C
Measurement Label: hemolysis at 30 min, 12.5 µM (%)
Report the value in % with no unit label.

Compound | Measurement Label | Unit String | Reported
CC(C)(C)OC(=O)/C=C/c1ccc(O)c(O)c1O [Compound 4] | hemolysis at 30 min, 12.5 µM | % | 52.9

We now examine a further compound.
Field hemolysis at 30 min, 12.5 µM (entry CCOC(=O)/C(C)=C/c1ccc(O)c(O)c1O [Compound 3] ) reads 4.13

---

The entries below come with measured SID10 values attached.
System: P. falciparum D10 (CQ-sensitive) strain
Assay: P. falciparum drug susceptibility assay (pLDH), CQ-sensitive strain D10
Format: cell-based
Settings: IC50(NHDF)/IC50(D10)
No unit in the answer, please; the number alone is enough.

Compound | SID10
CC(C)(C)OC(=O)/C=C/c1ccc(O)cc1O | 8.73

// moving on: another record for SID10
Given item "CC(C)(C)OC(=O)/C=C/c1ccc(O)c(F)c1" , the value recorded as its SID10 is 1.77

---

Experiment: MTT cytotoxicity assay on NHDF cells
Type: cell-based
Details: human, NHDF cells (normal human dermal fibroblasts)
Could you mark each record criterion met if its IC50 at 72 h falls strictly under 200 µM, and criterion not met if it equals or exceeds it?

Illustrative cases are given below, each with its answer.
Compound | Group
CC(C)(C)OC(=O)/C=C/c1ccc(O)cc1O [Compound 1] | criterion not met
CC(C)(C)OC(=O)/C=C/c1ccc(O)c(O)c1O [Compound 4] | criterion met
CCOC(=O)/C(C)=C/c1ccc(O)c(O)c1O [Compound 3] | criterion met

## Input Quick check: IC50 at 72 h of CC(C)(C)OC(=O)/C=C/c1ccc(O)c(F)c1 [Compound 6] under 200 µM?
## Output criterion not met

## Input Item CCOC(=O)/C=C/c1ccc(O)c(O)c1O [Compound 2] : IC50 at 72 h beneath 200 µM, strictly?
## Output criterion met

---

System: P. falciparum D10 (CQ-sensitive) strain
Experiment: P. falciparum drug susceptibility assay (pLDH), CQ-sensitive strain D10
Type: cell-based
Settings: Plasmodium falciparum, D10, 72 h, read-out: P. falciparum IC50 D10
Measurement Label: IC50 (nM)
Form entry: value (nM) — number only.

The compound listed as CCN(CC)CCCC(C)Nc1ccnc2cc(Cl)ccc12 (stereo not shown) [CQ, chloroquine, reference compound] has a reported IC50 of 20

---

Measurement Label: melting point

Some compounds with recorded melting point:
Mol | Measurement Label | Reported
CCOC(=O)/C=C/c1ccc(O)c(O)c1O | melting point | 172 to 173 °C
CC(C)(C)OC(=O)/C=C/c1ccc(O)c(O)c1O | melting point | 175 °C
CC(C)(C)OC(=O)/C=C/c1ccc(O)c(F)c1 | melting point | 88.3 °C

Attention now turns to another entry.
Consider "CCOC(=O)/C(C)=C/c1ccc(O)c(O)c1O" . Its measured melting point is 140 °C

---

Tested on: P. falciparum D10 (CQ-sensitive) strain
Assay: P. falciparum drug susceptibility assay (pLDH), CQ-sensitive strain D10
Type: cell-based
Conditions: IC50(NHDF)/IC50(D10)
Method: P. falciparum cultures were prepared and maintained according to the method of Trager and Jensen, with slight modifications. […] Serial dilutions of the compounds were prepared in 96-well flat-bottomed microplates. […] Parasite growth was determined spectrophotometrically (OD650) by measuring the activity of parasite lactate dehydrogenase (pLDH), according to a modified version of the method of Makler and Hinrichs, in control and compound-treated cultures.
Measurement Label: SID10
Please give the numeric answer without any surrounding text.

Compound | System Name | Reported
CC(C)(C)OC(=O)/C=C/c1ccc(O)c(O)c1O | P. falciparum D10 (CQ-sensitive) strain | 7.42
CCOC(=O)/C=C/c1ccc(O)c(O)c1O | P. falciparum D10 (CQ-sensitive) strain | 2.74
CCN(CC)CCCC(C)Nc1ccnc2cc(Cl)ccc12 (stereo not shown) [CQ, chloroquine, reference compound] | P. falciparum D10 (CQ-sensitive) strain | 2047.5

The record that follows has no SID10 shown yet.
// "CCOC(=O)/C(C)=C/c1ccc(O)c(O)c1O" : SID10 value = 6.23
